// provenance: patent US11192863B2

Target: Vpu protein (Human immunodeficiency virus type 1 group M subtype B)
Sequence (P05919 whole entry): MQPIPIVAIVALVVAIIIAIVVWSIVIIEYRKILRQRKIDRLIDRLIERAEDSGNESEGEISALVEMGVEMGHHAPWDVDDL
Settings: halo of growth score between zero and six; XL1-blue E. coli with pPL-Vpu, no adenine, 37° C.
Parameter: Vpu Inhibition (score/# of times tested). Scope: all listed entries.

Below, each entry is followed by its recorded Vpu Inhibition (score/# of times tested) result.
molecule=C/C(=C\c1ccccc1)C(=O)NC(=N)N measurement_type="Vpu Inhibition (score/# of times tested)" value="0.6/2 score"
molecule=COc1ccc(/C=C/C(=O)NC(=N)N)cc1 measurement_type="Vpu Inhibition (score/# of times tested)" value="2.13/3 score"
molecule=Cc1ccc(/C=C/C(=O)NC(=N)N)cc1 measurement_type="Vpu Inhibition (score/# of times tested)" value="2.1/2 score"

Lab book: Vpu Inhibition (score/# of times tested) of "NC(N)=NC(=O)c1nc(Cl)c(-c2ccccc2)nc1N" noted as 0.5/11 score
